Measured nuclei count by item
assay: inhibitors of E-selectin induction by TNFa, primary screen, imaging, HUVEC, immunofluorescence, MLSMR starter and 10KST1 sets (AID 487); conditions: HUVEC TNFalpha-induced E-selectin immunofluorescence imaging, at 2 µM; measured here: cell number, toxicity;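 also: 100% = median nuclei count of all wells on the same plate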

compound: O=c1oc2cc(O)ccc2c2oc3cc(O)ccc3c12
result units: %
nuclei count: 112
--
compound: COc1ccc(NC2CC(=O)N(C)C2=O)cc1 (stereo not drawn)
result units: %
nuclei count: 92.4
--
compound: CC1CCc2cc(F)cc3c(O)c(C(=O)NCc4ccco4)c(=O)n1c23 (stereo not drawn)
result units: %
nuclei count: 138
--
compound: CCOC(=O)CCC(=O)O[C@H]1[C@H](O[C@@H]2[C@@H](C)[C@H](O[C@H]3C[C@@](C)(OC)[C@@H](O)[C@H](C)O3)[C@@H](C)C(=O)O[C@H](CC)[C@@](C)(O)[C@H](O)[C@@H](C)C(=O)[C@H](C)C[C@@]2(C)O)O[C@H](C)C[C@@H]1N(C)C
result units: %
nuclei count: 115
--
compound: CC1(C)Cc2c(sc3ncn4nnnc4c23)CO1
result units: %
nuclei count: 180
--
compound: Cn1c(NCc2ccco2)nc2c1c(=O)n(Cc1ccc(Cl)c(Cl)c1)c(=O)n2C
result units: %
nuclei count: 147
--
compound: CC(CN1c2ccccc2Sc2ccccc21)N(C)C (stereo not drawn)
result units: %
nuclei count: 109
--
compound: CCOC(=O)N1CC=C2C(C#N)=C(N)C(C#N)(C#N)[C@H](c3cccs3)[C@H]2C1
result units: %
nuclei count: 144
--
compound: COC(=O)c1ccc(C(=O)OC)c(NC(=O)c2cc3ccccc3o2)c1
result units: %
nuclei count: 175
--
compound: CC1(C)Cc2c(C#N)c(NCCN3CCOCC3)nc(-c3ccco3)c2CO1
result units: %
nuclei count: 149
--
compound: C/C=C/c1ccccc1OCc1ccc(C(=O)O)o1
result units: %
nuclei count: 98.3
--
compound: S=c1nc(-c2ccccc2)[nH]n1-c1ccccc1
result units: %
nuclei count: 110
--
compound: Fc1ccccc1/C=N/n1cnnc1
result units: %
nuclei count: 172
--
compound: CCN(CC)CCCN1C(=O)C(=O)/C(=C(/O)c2ccc(C)cc2)C1c1ccccn1 (stereo not drawn)
result units: %
nuclei count: 144
--
compound: CCOc1ccc(C2/C(=C(/O)c3ccc(F)cc3)C(=O)C(=O)N2CCCN(C)C)cc1 (stereo not drawn)
result units: %
nuclei count: 186
--
compound: CC(=O)c1c(OCC(=O)O)ccc2c(C)cc(=O)oc12
result units: %
nuclei count: 126
--
compound: c1coc(-c2nnc3sc(-c4cccs4)nn23)c1
result units: %
nuclei count: 132
--
compound: Cc1c(C=NCCOCc2ccccc2)cnn1C
result units: %
nuclei count: 116
